- TARGET_SYSTEM: Gal3S(b1-4)[Fuc(a1-3)]Glc6S
- MEASUREMENT_NOTES: glycan array binding signal (z-score within array); higher = stronger binding
- RUN_PARAMETERS: glycan notation: IUPAC condensed, linker removed
Shown is part of a subset that was picked to be rich in the strongest signals.
QUANTITY_MEASURED: glycan array binding signal (z-score)

Worked examples, 3 binders total:
Epa11 (Candida glabrata) (protein) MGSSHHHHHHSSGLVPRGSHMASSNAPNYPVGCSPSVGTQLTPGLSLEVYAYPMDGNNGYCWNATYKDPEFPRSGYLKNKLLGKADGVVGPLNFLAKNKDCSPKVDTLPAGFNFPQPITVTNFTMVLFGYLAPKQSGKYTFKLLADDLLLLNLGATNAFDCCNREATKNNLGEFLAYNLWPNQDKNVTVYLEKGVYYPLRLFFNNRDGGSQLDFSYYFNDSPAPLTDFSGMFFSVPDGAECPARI; 1.71
PfulAvr4 2 (Pseudocercospora fuligena) (protein) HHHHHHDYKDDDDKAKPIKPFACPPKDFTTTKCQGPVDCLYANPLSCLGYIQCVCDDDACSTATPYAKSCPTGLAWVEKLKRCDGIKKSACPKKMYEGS; -0.272
Pwp1 (Candida glabrata) (protein) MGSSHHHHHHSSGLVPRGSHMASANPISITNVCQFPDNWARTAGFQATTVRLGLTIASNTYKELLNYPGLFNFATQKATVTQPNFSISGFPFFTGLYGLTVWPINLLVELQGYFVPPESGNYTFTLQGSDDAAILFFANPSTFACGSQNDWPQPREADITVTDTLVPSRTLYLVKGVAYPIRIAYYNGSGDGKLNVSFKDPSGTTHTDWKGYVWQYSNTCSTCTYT; -0.627

Task item: Could you share which glycan array binding signal (z-score) value was measured for CIH1 (Colletotrichum higginsianum) (protein) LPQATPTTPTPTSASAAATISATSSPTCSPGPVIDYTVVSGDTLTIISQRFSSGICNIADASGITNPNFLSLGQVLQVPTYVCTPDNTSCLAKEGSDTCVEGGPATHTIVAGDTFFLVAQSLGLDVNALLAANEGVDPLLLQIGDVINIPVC ?
Reply: 0.006

Task item: Could you share which glycan array binding signal (z-score) value was measured for AidA (Burkholderia cenocepacia) (protein) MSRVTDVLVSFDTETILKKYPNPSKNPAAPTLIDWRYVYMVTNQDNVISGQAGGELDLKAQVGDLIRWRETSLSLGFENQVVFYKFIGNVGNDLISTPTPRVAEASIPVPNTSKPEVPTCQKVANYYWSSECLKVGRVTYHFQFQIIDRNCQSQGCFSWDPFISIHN ?
Reply: 2.38

Task item: Could you share which glycan array binding signal (z-score) value was measured for LF82 (Escherichia coli) (protein) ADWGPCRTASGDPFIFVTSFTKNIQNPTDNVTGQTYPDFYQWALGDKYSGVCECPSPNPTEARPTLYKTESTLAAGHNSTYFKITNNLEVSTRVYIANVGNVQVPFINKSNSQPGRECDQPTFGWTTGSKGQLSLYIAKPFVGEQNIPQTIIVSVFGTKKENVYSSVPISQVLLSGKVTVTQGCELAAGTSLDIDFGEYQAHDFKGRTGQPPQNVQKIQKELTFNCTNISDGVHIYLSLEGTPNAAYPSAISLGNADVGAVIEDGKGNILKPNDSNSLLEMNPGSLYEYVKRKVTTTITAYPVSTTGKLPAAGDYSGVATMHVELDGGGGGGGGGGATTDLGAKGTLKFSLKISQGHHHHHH ?
Reply: -0.55
